Target: CDK2/CyclinE1 (Homo sapiens (Human))
Test: CDK2/CyclinE1 kinase inhibitory activity (Caliper mobility shift)
Conditions: read-out: CDK2/Cyclin El IC50
pIC50: −log10 of the molar value.
The following compounds are shown together with reported pIC50 values.

Solved entries:
CC1CCCC1Oc1nc(Nc2ccc(S(N)(=O)=O)cc2)ncc1C#N (stereo not drawn) [Example 11]; > 8.00
CS(=O)(=O)N1CCC(Nc2ncc(Br)c(OC3CCCCCC3O)n2)CC1 (single isomer, unassigned) [Example 145a]; 7.00 to 8.00
[2H]C([2H])([2H])NS(=O)(=O)c1ccc(Nc2ncc(C(F)(F)F)c(O[C@H]3CCOC[C@H]3O)n2)cc1 (single isomer, unassigned) [Example 100a]; > 8.00
CC1(O)CCCC1Oc1nc(NC2CCN(S(=O)(=O)CC(F)(F)F)CC2)ncc1C#N (single isomer, unassigned) [Example 43a]; > 8.00
[2H]C([2H])([2H])NS(=O)(=O)c1ccc(Nc2ncc(C(F)(F)F)c(OC3CCCC3O)n2)cc1 (single isomer, unassigned) [Example 109a]; > 8.00

Query: Query (compound): N#Cc1cnc(Nc2ccc(S(N)(=O)=O)cc2)nc1-c1cccc(F)c1 [Example 95] ; field requested: pIC50
Result: 7.00 to 8.00

Query: Query (compound): CNS(=O)(=O)c1ccc(Nc2ncc(C#N)c(OC3CCC[C@H]3O)n2)cc1 (mixture of isomers) [Example 26] ; field requested: pIC50
Result: > 8.00

* * *

Target: CDK4/Cyclin D1 (Homo sapiens (Human), UniProt P11802)
Sequence (P11802 whole entry): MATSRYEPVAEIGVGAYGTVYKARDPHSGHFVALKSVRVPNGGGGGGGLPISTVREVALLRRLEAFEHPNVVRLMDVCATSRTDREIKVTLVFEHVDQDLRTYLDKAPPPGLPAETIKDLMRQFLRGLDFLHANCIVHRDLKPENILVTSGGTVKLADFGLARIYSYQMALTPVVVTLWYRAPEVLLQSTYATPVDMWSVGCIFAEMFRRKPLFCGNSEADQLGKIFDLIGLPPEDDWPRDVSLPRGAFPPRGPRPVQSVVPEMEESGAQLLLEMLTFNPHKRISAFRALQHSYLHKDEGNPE
Sequence (P24385 whole entry partner): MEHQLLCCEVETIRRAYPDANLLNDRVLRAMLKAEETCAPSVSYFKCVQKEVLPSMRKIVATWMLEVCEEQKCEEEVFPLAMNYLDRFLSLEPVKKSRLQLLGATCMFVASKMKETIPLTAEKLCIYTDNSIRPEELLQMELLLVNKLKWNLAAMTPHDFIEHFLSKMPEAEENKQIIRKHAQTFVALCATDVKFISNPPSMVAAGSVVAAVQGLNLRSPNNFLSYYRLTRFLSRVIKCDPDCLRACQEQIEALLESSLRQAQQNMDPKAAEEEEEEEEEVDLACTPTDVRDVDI
Assay: CDK4/CyclinD1 kinase inhibitory activity (Caliper mobility shift)
pIC50: −log10 of the molar value.
Measurement type: pIC50

N#Cc1cnc(Nc2ccc(S(N)(=O)=O)cc2)nc1O[C@@H]1CCCC[C@@H]1O (single isomer, unassigned); 7.00 to 8.00
CC1(O)COCCC1Oc1nc(NC2CCN(S(C)(=O)=O)CC2)ncc1C#N (single isomer, unassigned) [Example 45a]; 7.00 to 8.00

Query: Lab request: please report pIC50 under test system CDK4/Cyclin D1 (Homo sapiens (Human), UniProt P11802) for N#Cc1cnc(Nc2ccc(S(N)(=O)=O)cc2)nc1OC1CCCC1O (single isomer, unassigned) [Example 20a]
Result: 6.00 to 7.00

Query: Lab request: please report pIC50 under test system CDK4/Cyclin D1 (Homo sapiens (Human), UniProt P11802) for CC1(O)CC(F)(F)CCC1Oc1nc(NC2CCN(S(C)(=O)=O)CC2)ncc1C#N (single isomer, unassigned) [Example 47a]
Result: > 8.00

Query: Lab request: please report pIC50 under test system CDK4/Cyclin D1 (Homo sapiens (Human), UniProt P11802) for NS(=O)(=O)c1ccc(Nc2ncc(Br)c(OC3CCCC3O)n2)cc1 (single isomer, unassigned) [Example 141a]
Result: 7.00 to 8.00

Query: Lab request: please report pIC50 under test system CDK4/Cyclin D1 (Homo sapiens (Human), UniProt P11802) for CC1(O)CCC(F)(F)CC1Oc1nc(NC2CCN(S(C)(=O)=O)CC2)ncc1C#N (single isomer, unassigned) [Example 46b]
Result: > 8.00

Query: Lab request: please report pIC50 under test system CDK4/Cyclin D1 (Homo sapiens (Human), UniProt P11802) for CC1(O)CC(F)(F)CC1Oc1nc(NC2CCN(S(=O)(=O)CC3CC3)CC2)ncc1C#N (single isomer, unassigned) [Example 44b]
Result: 7.00 to 8.00

Query: Lab request: please report pIC50 under test system CDK4/Cyclin D1 (Homo sapiens (Human), UniProt P11802) for C[C@]1(O)COC[C@H]1Oc1nc(NC2CCN(S(C)(=O)=O)CC2)ncc1C(F)(F)F (relative stereo) [Example 104a]
Result: 7.00 to 8.00

Query: Lab request: please report pIC50 under test system CDK4/Cyclin D1 (Homo sapiens (Human), UniProt P11802) for NS(=O)(=O)c1ccc(Nc2ncc(C(F)(F)F)c(OC3CCOCC3O)n2)cc1 (single isomer, unassigned) [Example 114a]
Result: 6.00 to 7.00

Query: Lab request: please report pIC50 under test system CDK4/Cyclin D1 (Homo sapiens (Human), UniProt P11802) for C[C@]1(O)CC(F)(F)C[C@H]1Oc1nc(NC2CCN(S(C)(=O)=O)CC2)ncc1C#N (relative stereo) [Example 4b]
Result: 6.00 to 7.00

Query: Lab request: please report pIC50 under test system CDK4/Cyclin D1 (Homo sapiens (Human), UniProt P11802) for N#Cc1cnc(Nc2ccc(S(N)(=O)=O)cc2)nc1N1CCCCCC1
Result: 7.00 to 8.00

* * *

Target: CDK2/CyclinE1 (Homo sapiens (Human), UniProt P24941)
Experiment: CDK2/CyclinE1 kinase inhibitory activity (Caliper mobility shift)
Settings: read-out: CDK2/Cyclin El IC50
Measurement type: IC50

CNS(=O)(=O)c1ccc(Nc2ncc(C#N)c(OC3CCCC3(C)O)n2)cc1 (single isomer, unassigned) [Example 34b]; < 10 nM
COCCS(=O)(=O)N1CCC(Nc2ncc(C#N)c(OCC3(C)CCCC3)n2)CC1 [Example 58]; < 10 nM

Query: Lab request: please report IC50 under test system CDK2/CyclinE1 (Homo sapiens (Human), UniProt P24941) for [2H]C([2H])([2H])NS(=O)(=O)c1ccc(Nc2ncc(C)c(OC3CCCC3O)n2)cc1 (single isomer, unassigned) [Example 148b]
Result: 10 to 100 nM

Query: Lab request: please report IC50 under test system CDK2/CyclinE1 (Homo sapiens (Human), UniProt P24941) for CC1(O)CCCC1Oc1nc(Nc2ccc(S(N)(=O)=O)cc2)ncc1C1CC1 (single isomer, unassigned) [Example 154b]
Result: < 10 nM

Query: Lab request: please report IC50 under test system CDK2/CyclinE1 (Homo sapiens (Human), UniProt P24941) for Cn1cnc(S(=O)(=O)N2CCC(Nc3ncc(C#N)c(OC4CCCC4(C)O)n3)CC2)n1 (single isomer, unassigned) [Example 51a]
Result: < 10 nM

Query: Lab request: please report IC50 under test system CDK2/CyclinE1 (Homo sapiens (Human), UniProt P24941) for CNS(=O)(=O)c1ccc(Nc2ncc(C(F)(F)F)c(OC3CCOCC3O)n2)cc1 (single isomer, unassigned) [Example 116b]
Result: 10 to 100 nM

Query: Lab request: please report IC50 under test system CDK2/CyclinE1 (Homo sapiens (Human), UniProt P24941) for Cc1cnc(Nc2ccc(S(=O)(=O)NC3CC3)cc2)nc1OC1CCCC1O (single isomer, unassigned) [Example 146b]
Result: 10 to 100 nM

Query: Lab request: please report IC50 under test system CDK2/CyclinE1 (Homo sapiens (Human), UniProt P24941) for NS(=O)(=O)c1ccc(Nc2ncc(C(F)(F)F)c(OC3COCCC3O)n2)cc1 (single isomer, unassigned) [Example 115a]
Result: < 10 nM

Query: Lab request: please report IC50 under test system CDK2/CyclinE1 (Homo sapiens (Human), UniProt P24941) for [2H]C([2H])([2H])NS(=O)(=O)c1ccc(Nc2ncc(C(F)(F)F)c(O[C@H]3CCOC[C@H]3O)n2)c(F)c1 (single isomer, unassigned) [Example 101b]
Result: 10 to 100 nM

Query: Lab request: please report IC50 under test system CDK2/CyclinE1 (Homo sapiens (Human), UniProt P24941) for [2H]C([2H])([2H])NS(=O)(=O)c1ccc(Nc2ncc(C(F)(F)F)c(O[C@H]3CCCOC[C@H]3O)n2)cc1 (single isomer, unassigned) [Example 103a]
Result: < 10 nM

Query: Lab request: please report IC50 under test system CDK2/CyclinE1 (Homo sapiens (Human), UniProt P24941) for [2H]C([2H])([2H])NS(=O)(=O)c1ccc(Nc2ncc(CC)c(OC3CCOCC3(C)O)n2)cc1 (single isomer, unassigned) [Example 152b]
Result: 10 to 100 nM

Query: Lab request: please report IC50 under test system CDK2/CyclinE1 (Homo sapiens (Human), UniProt P24941) for CC1(O)CC(F)(F)CCC1Oc1nc(NC2CCN(S(C)(=O)=O)CC2)ncc1C#N (single isomer, unassigned) [Example 47a]
Result: < 10 nM

* * *

Target: CDK9/CyclinT1 (Homo sapiens (Human))
Sequence (P50750 whole entry): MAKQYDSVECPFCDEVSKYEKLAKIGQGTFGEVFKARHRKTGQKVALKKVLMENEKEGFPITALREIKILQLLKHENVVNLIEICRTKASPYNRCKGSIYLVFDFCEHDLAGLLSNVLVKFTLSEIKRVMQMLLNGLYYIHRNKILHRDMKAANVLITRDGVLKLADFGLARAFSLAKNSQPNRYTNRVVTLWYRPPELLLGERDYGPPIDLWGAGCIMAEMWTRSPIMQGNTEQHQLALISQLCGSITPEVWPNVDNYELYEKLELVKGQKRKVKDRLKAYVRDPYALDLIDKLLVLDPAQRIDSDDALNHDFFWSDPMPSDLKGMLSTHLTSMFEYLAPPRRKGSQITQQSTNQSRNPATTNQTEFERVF
Sequence (O60563 whole entry partner): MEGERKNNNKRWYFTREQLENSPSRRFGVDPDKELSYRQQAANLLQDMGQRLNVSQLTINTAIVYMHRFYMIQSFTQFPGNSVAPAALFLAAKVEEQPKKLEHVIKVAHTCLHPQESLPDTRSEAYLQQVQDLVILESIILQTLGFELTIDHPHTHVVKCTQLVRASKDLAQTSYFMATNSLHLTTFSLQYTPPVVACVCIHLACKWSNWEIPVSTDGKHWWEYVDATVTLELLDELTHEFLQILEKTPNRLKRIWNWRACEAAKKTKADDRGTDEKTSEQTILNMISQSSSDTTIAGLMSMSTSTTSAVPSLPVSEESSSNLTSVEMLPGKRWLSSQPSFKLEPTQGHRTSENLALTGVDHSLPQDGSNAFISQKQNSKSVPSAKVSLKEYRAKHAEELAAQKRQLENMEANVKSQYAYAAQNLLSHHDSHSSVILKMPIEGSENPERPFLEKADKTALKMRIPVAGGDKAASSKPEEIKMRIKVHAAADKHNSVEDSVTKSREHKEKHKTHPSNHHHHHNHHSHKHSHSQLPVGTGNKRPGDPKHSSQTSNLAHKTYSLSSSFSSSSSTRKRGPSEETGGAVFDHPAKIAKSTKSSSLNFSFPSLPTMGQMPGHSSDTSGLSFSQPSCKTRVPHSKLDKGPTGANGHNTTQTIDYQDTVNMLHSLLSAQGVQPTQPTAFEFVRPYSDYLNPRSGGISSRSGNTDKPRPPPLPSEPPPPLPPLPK
Test: CDK9/CyclinT1 kinase inhibitory activity (Caliper mobility shift)
Settings: read-out: CDK9/Cyclin T1 IC50
Measurement type: IC50

CC1CCCC(O)C1Oc1nc(Nc2ccc(S(N)(=O)=O)cc2)ncc1C(F)(F)F (single isomer, unassigned) [Example 112a]; 0.1 to 1 µM

Query: Query (compound): CS(=O)(=O)N1CCC(Nc2ncc(C(F)(F)F)c(OC3CCCCCC3O)n2)CC1 (single isomer, unassigned) [Example 121b] ; field requested: IC50
Result: 0.1 to 1 µM

Query: Query (compound): C=Cc1cnc(Nc2ccc(S(N)(=O)=O)cc2)nc1OC1CCCC1O (single isomer, unassigned) [Example 155a] ; field requested: IC50
Result: 0.01 to 0.1 µM

Query: Query (compound): [2H]C([2H])([2H])NS(=O)(=O)c1ccc(Nc2ncc(CC)c(OC3CCCC3O)n2)cc1 (single isomer, unassigned) [Example 149a] ; field requested: IC50
Result: 0.1 to 1 µM

Query: Query (compound): [2H]C([2H])([2H])NS(=O)(=O)c1ccc(Nc2ncc(C(F)(F)F)c(OC3COCCC3O)n2)cc1 (single isomer, unassigned) [Example 117b] ; field requested: IC50
Result: ≥ 1 µM
